Reported pIC50 values for a set of molecules
# tested_system: KRAS WT (Homo sapiens (Human), UniProt P01116+P62937)
# Sequence (P01116 other isoform, or with tags, fused parts or gaps): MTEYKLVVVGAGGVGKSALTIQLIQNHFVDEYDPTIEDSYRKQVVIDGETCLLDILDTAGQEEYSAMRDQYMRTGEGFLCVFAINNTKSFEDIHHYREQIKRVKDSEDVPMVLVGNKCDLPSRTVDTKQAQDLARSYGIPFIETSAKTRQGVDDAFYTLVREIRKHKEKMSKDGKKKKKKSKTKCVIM
# Sequence (P62937 whole entry): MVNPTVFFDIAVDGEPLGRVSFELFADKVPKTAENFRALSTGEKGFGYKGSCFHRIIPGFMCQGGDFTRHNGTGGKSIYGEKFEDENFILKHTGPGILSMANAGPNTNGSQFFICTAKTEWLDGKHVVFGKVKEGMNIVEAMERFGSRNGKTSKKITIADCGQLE
# assay_text: Ras-Raf disruption/FRET/MOA assay (BRAF RBD, Cyclophilin A)
# Format: biochemical
# protocol_conditions: read-out: KRAS WT FRET data IC50
pIC50: −log10 of the molar value.

Sample records with pIC50:
{"columns": ["molecule", "pIC50"],
 "data": [
  ["CCn1c(-c2cccnc2[C@H](C)OC)c2c3cc(ccc31)-c1cc(O)cc(c1)C[C@H](NC(=O)[C@H](C(C)C)N(C)C(=O)[C@]1(F)CCN(C(=O)OC)C1)C(=O)N1CCC[C@H](N1)C(=O)OCC(C)(C)C2", "7.00 to 8.00"],
  ["CCn1c(-c2cccnc2[C@H](C)OC)c2c3cc(ccc31)-c1csc(n1)C[C@H](NC(=O)[C@H](C(C)C)N(C)C(=O)N1CC(O)C1)C(=O)N1CCC[C@H](N1)C(=O)OCC(C)(C)C2", "6.00 to 7.00"],
  ["CCn1c(-c2cccnc2[C@H](C)OC)c2c3cc(ccc31)-c1csc(n1)C[C@H](NC(=O)[C@H](C(C)C)N(C)C(=O)N1CC[C@]3(CCNC3=O)C1)C(=O)N1CCC[C@H](N1)C(=O)OCC(C)(C)C2", "5.00 to 6.00"]
]}

**Query** Look up pIC50 with KRAS WT (Homo sapiens (Human), UniProt P01116+P62937) for this molecule: CCn1c(-c2cccnc2[C@H](C)OC)c2c3cc(ccc31)-c1cc(O)cc(c1)C[C@H](NC(=O)[C@H](C(C)C)N(C)C(=O)[C@H]1C[C@@H]1F)C(=O)N1CCC[C@H](N1)C(=O)OCC(C)(C)C2
**Result** 6.00 to 7.00

**Query** Look up pIC50 with KRAS WT (Homo sapiens (Human), UniProt P01116+P62937) for this molecule: CCn1c(-c2cccnc2[C@H](C)OC)c2c3cc(ccc31)-c1csc(n1)C[C@H](NC(=O)[C@H](C(C)C)N(C)C(=O)N1CC[C@@H](F)[C@H](N)C1)C(=O)N1CCC[C@H](N1)C(=O)OCC(C)(C)C2
**Result** 6.00 to 7.00

**Query** Look up pIC50 with KRAS WT (Homo sapiens (Human), UniProt P01116+P62937) for this molecule: CCn1c(-c2cccnc2[C@H](C)OC)c2c3cc(ccc31)-c1cc(O)cc(c1)C[C@H](NC(=O)[C@H](C(C)C)N(C)C(=O)C1CCc3ncccc3C1)C(=O)N1CCC[C@H](N1)C(=O)OCC(C)(C)C2 (some centres unmarked)
**Result** 7.00 to 8.00

**Query** Look up pIC50 with KRAS WT (Homo sapiens (Human), UniProt P01116+P62937) for this molecule: CCn1c(-c2cccnc2[C@H](C)OC)c2c3cc(ccc31)-c1csc(n1)C[C@H](NC(=O)[C@H](C(C)C)N(C)C(=O)N1CC3CC(C1)O3)C(=O)N1CCC[C@H](N1)C(=O)OCC(C)(C)C2
**Result** 6.00 to 7.00

**Query** Look up pIC50 with KRAS WT (Homo sapiens (Human), UniProt P01116+P62937) for this molecule: CCn1c(-c2cccnc2[C@H](C)OC)c2c3cc(ccc31)-c1csc(n1)C[C@H](NC(=O)[C@H](C(C)C)N(C)C(=O)N1CCCC13CN(C)C3)C(=O)N1CCC[C@H](N1)C(=O)OCC(C)(C)C2
**Result** 7.00 to 8.00

Values compiled from patent US20250195521A1.
